- TARGET_OF_ASSAY: Aβ40 peptide (Homo sapiens)
- Construct: we preferred using Aβ40 peptide
- Sequence (P05067 672-711 limits assumed): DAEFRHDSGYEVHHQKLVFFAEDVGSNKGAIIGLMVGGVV
- PROCEDURE_SUMMARY: Inhibition of Aβ40 aggregation, ThT fluorescence-based method
- Format: biochemical
EXPERIMENTAL_ENDPOINT: IC50 (µM)
Quick note: give the figure in µM, leave out the unit.

The compound listed as COc1ccc2c(c1)/C(=N/Nc1ccc(C(C)C)cc1)C(=O)N2CCc1ccccc1 has a reported IC50 of 0.61

Entry COc1ccc2c(c1)/C(=N/Nc1ccccn1)C(=O)N2 ; IC50 = 90

Lab note: COc1ccc2c(c1)/C(=N/Nc1ccc(C(C)C)cc1)C(=O)N2C1CC1 gave IC50 of 0.8

Entry under test: COc1ccc2c(c1)/C(=N/Nc1ccc(C(C)C)cc1)C(=O)N2Cc1ccccc1 . Its IC50 was 0.53

GET /value?item= COc1ccc2[nH]cc(/C=N/Nc3ccc(C(C)C)cc3)c2c1 &field=IC50 returns 41

The compound listed as COc1ccc2c(c1)/C(=N/Nc1ccc(C(C)C)cc1)C(=O)N2C shows IC50 equal to 0.81

Measured IC50, COc1ccc2c(c1)/C(=N/Nc1cc(C(F)(F)F)cc(C(F)(F)F)c1)C(=O)N2 : 9.9

Recorded result, COc1ccc2c(c1)/C(=N/Nc1ccc(C(C)C)cc1)C(=O)N2CCCc1ccccc1 , IC50: 0.83
